These measurements were taken from patent US12084523.

- Experimental target: T1, biotin-^K48Ub2 (chemically synthesized K48-linked di-ubiquitin, biotin on the distal Ub) (UniProt P0CG48 1-76, isopeptide bond from the C-terminus of the distal Ub to Lys48 of the proximal Ub; biotin at the N-terminus of the distal Ub)
- T1 construct: mature; also called Lys48-linked ubiquitin dimer
- Assay name: SPR, K48-Ub2
Starred links: 1 amine or outer side, 2 acyl side, 3 side chain; linkers in the order of their positions; H or OH if unused. Positions of bridges follow the written chain, without caps; N, C: chain ends. No end group written: not given here. mClBz = N-terminal chlorobenzyl thioether anchor (M*) that cyclises onto the Cys, the meta form of the mClBz/pClBz pair, O=C(c1cccc(C[*:3])c1)[*:2]
I'd be grateful if you could share measured Kd for these entries.
Note: a bare number is incomplete; add the unit.

Reported Kd of mClBz-GWFDDEYLFVAYCG (bridge N-13; not fully specified (bridges)) [J08_mClBz_L6E] : 5 nM

Lab note: measured Kd of WGWFDDLYLFVAYCG (position 1 is ClAc-D-Trp (M* of Table 2); macrocycle closed between the N-terminal chloroacetyl group and the Cys, also called U4i) [Ub4i cyclic peptide] was 90 nM
